# reported self-cleavage; entries follow
B1: LINE1-full (parent)
chain: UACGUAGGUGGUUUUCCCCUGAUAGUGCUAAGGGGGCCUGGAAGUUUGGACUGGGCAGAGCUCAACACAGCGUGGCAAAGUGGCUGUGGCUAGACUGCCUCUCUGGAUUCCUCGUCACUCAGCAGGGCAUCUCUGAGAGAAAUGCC

Variants of: B1
protocol: self-cleavage, relative activity (ratio to wild type); higher = more cleavage; in vitro, sequencing; the parent is a self-cleaving ribozyme

- mutationName: "U29C A57U"
  assayResult: 0.33
- mutationName: "U15A U23C"
  assayResult: 1.17
- mutationName: "G139A"
  assayResult: 0.89
- mutationName: "A77U A79G"
  assayResult: 1.48
- mutationName: "A64G C113U"
  assayResult: 0.13
- mutationName: "U14C U45G"
  assayResult: 1.34
- mutationName: "C28U A77C"
  assayResult: 1.07
- mutationName: "U9C C113A"
  assayResult: 1.2
- mutationName: "G48A G55U"
  assayResult: 0.19
- mutationName: "A6G C133U"
  assayResult: 0.59

Q: Form field: reported self-cleavage of G89A G137A
Ans: 0.05

Q: // same read-out, input: G11A A24U
Ans: 1.72
